- Tested System: Torsin-1A (Homo sapiens)
- Assay Details: torsin A mutant lysate binding on microarrays – cell lysate, small-molecule microarray, COS7 lysate, 635/667 nm fluorescence, primary screen (AID 1150);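 also: score pools 667 nm emission and signal to noise measuring lysate protein binding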
- Protocol Conditions: COS7 hTOR1A mutant lysate, 635 nm fluorescence, higher = more signal
Observation Type: composite z-score
Quick one: just the number, no unit, thanks!

Query :: Request body: readout composite z-score, system Torsin-1A (Homo sapiens), query C=CC[C@@]1(C(=O)NCc2ccccc2)N=C(c2ccc(OCCCO)cc2)O[C@@H]1c1ccccc1CN=[N+]=[N-] . Return the value.
Result :: 0.287

Query :: And then Cc1ccc(S[C@]2(C(=O)NCC(C)C)CC(=O)N(Cc3ccccc3)[C@@H]2c2ccc(CO)cc2)cc1 , what is it?
Result :: -0.293

Query :: And then O=C1OCCC=C[C@H]2OC34C=CCN(CCN5CCOCC5)C(=O)[C@H]3N(CCO)C(=O)[C@@H]4C12 (stereo partly specified) , what is it?
Result :: 0.0141

Query :: And then C=C(C(=O)CC[C@@H](OC(=O)c1cccnc1)c1ccc(OCCO)cc1)C(C)C , what is it?
Result :: 0.97

Query :: And then CCCNC(=O)[C@@]1(C)c2ccccc2C(=O)N(C(C)C)[C@H]1c1ccc(CO)cc1 , what is it?
Result :: -0.435

Query :: And then C=CC[C@@]1(C(=O)OC)N=C(c2ccc(OCCCO)cc2)O[C@@H]1c1ccccc1CN=[N+]=[N-] , what is it?
Result :: -0.249

Query :: And then CN(C)CCCCCCNC(=O)[C@@H]1C[C@@H]2C(=O)N[C@@H](Cc3ccccc3)C(=O)N2[C@@H]1c1cccc(OCCO)c1 , what is it?
Result :: 0.885

Query :: And then O=C1O[C@H](c2ccccc2)[C@H](c2ccccc2)N2[C@H]1[C@@H](C(=O)NC[C@H](O)c1ccccc1)[C@]1(C(=O)Nc3ccc(C#CC4=CCCCC4)cc31)[C@H]2c1ccc(O)cc1 , what is it?
Result :: 1.08

Query :: And then CC(C)(C)OC(=O)CC[C@]1(C(=O)NCC(O)CO)N=C(c2ccc(OCCCO)cc2)O[C@H]1c1ccccc1CN=[N+]=[N-] (stereo partly specified) , what is it?
Result :: 2.06

Query :: And then COC(=O)[C@@]1(Cc2ccc(F)cc2)[C@H]2c3cc(C(=O)N4CCCC4)n(CCc4ccc(OC)c(Br)c4)c3C[C@H]2CN1C(=O)c1ccccc1 , what is it?
Result :: 0.858

Query :: And then CC(=O)NCCCC[C@@H]1NC(=O)[C@@H]2C[C@H](C(=O)NCc3ccc(F)cc3)[C@H](c3ccc(O)cc3)N2C1=O , what is it?
Result :: 0.524

Query :: And then O=c1cccc(-c2ccccc2)o1 , what is it?
Result :: 0.274

Query :: And then CCN(CC)c1ccc(N2CC=CC34O[C@@H]5/C=C\CCC(C)OC(=O)C5[C@H]3C(=O)N(CCCCCCO)[C@@H]4C2=O)cc1 (stereo partly specified) , what is it?
Result :: 0.0844

Query :: And then C#C[C@H]1Oc2ccccc2S(=O)(=O)N2CCC[C@@H]12 , what is it?
Result :: 0.512

Query :: And then CCN(CC)c1ccc(N2CC=CC34O[C@@H]5C=CCOC(=O)[C@@H]5[C@H]3C(=O)N(CCCCCO)[C@@H]4C2=O)cc1 (stereo partly specified) , what is it?
Result :: 1.06

Query :: And then CN1C(=O)C2C=CC(C(O)c3ccc(Br)cc3)N(Nc3ccccc3)C2C1=O (stereo unspecified) , what is it?
Result :: 0.828
